Data provenance is patent US7153876B2.

# EXPERIMENTAL_TARGET: human factor VIIa and TF (factor VIIa/TF) (Homo sapiens)
# Construct: human factor VIIa and TF (5 nM and 10 nM, respective final concentration)
# Sequence (P08709 61-212 limits assumed): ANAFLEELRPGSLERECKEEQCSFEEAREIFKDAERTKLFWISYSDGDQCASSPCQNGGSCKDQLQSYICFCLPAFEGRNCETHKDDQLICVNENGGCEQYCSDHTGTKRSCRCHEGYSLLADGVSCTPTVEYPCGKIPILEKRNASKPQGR
# Sequence (P08709 213-466 limits assumed): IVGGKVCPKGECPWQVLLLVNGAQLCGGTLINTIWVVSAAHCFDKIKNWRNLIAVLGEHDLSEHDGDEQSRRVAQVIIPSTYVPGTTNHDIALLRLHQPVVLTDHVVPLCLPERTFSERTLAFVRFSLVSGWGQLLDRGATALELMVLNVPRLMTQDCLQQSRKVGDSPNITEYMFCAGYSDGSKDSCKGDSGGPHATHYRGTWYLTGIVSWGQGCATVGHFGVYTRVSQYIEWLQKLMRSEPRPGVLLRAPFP
# Sequence (P13726 33-295 partner): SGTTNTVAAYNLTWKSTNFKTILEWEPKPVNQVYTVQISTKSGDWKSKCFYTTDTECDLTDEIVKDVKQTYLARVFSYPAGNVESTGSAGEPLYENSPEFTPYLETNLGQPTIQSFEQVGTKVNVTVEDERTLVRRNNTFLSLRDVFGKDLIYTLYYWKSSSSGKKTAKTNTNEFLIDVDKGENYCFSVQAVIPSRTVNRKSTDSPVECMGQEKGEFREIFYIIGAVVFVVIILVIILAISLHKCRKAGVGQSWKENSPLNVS
# ASSAY_OVERVIEW: Factor VIIa (FVIIa) chromogenic assay
# CONDITION_DETAILS: inhibition constant towards factor VIIa/TF activity; chromogenic substrate S-2288 500 μM; 25° C.; 15 minute preincubation; factor VIIa 5 nM, TF 10 nM
TEST_READOUT: Ki (µM)

Below are worked cases with known answers.
COMPOUND: C[C@H](NC(=O)C(CCc1ccccc1)C(=O)Nc1ccc(C(=N)N)cc1)c1ccc2ccccc2c1 (some centres unmarked)
EXPERIMENTAL_TARGET: human factor VIIa and TF (factor VIIa/TF) (Homo sapiens)
Ki (µM): 17.1
--
COMPOUND: COc1ccc2c(c1)C[C@@H](NC(=O)C(C(=O)Nc1ccc(C(=N)N)cc1)c1ccccc1)CC2 (some centres unmarked)
EXPERIMENTAL_TARGET: human factor VIIa and TF (factor VIIa/TF) (Homo sapiens)
Ki (µM): 7.12
--
COMPOUND: N#CC(NC(=O)C(C(=O)Nc1ccc(C(=N)N)cc1)c1ccccc1)c1ccccc1 (centres unmarked)
EXPERIMENTAL_TARGET: human factor VIIa and TF (factor VIIa/TF) (Homo sapiens)
Ki (µM): 3.82
--
COMPOUND: N=C(N)c1ccc(NC(=O)C(C(=O)NCc2cccc([N+](=O)[O-])c2)c2ccccc2)cc1 (centres unmarked)
EXPERIMENTAL_TARGET: human factor VIIa and TF (factor VIIa/TF) (Homo sapiens)
Ki (µM): 3.01

P. N=C(N)c1ccc(NC(=O)C(CCc2ccccc2)C(=O)NCc2ccccc2)cc1 (centres unmarked)
Q. COc1ccc([C@H](C)NC(=O)C(C(=O)Nc2ccc(C(=N)N)cc2)c2ccccc2)cc1 (some centres unmarked)
R. N=C(N)c1ccc(NC(=O)C(C(=O)NCc2ccc(-c3csnn3)cc2)c2ccccc2)cc1 (centres unmarked)
S. CC(NC(=O)C(C(=O)Nc1ccc(C(=N)N)cc1)c1ccccc1)c1ccc([N+](=O)[O-])cc1 (centres unmarked)
// ranking: key=Ki, reverse=True Record the ranking as a list of labels in the requested order.
R, P, Q, S
(R: 6.02 µM, P: 2.81 µM, Q: 0.381 µM, S: 0.198 µM)
